# assay: Pharmacokinetic study of omeprazole in mice after i.v., i.p. and p.o. administration (plasma and brain, LC-QTOF-MS)
# Format: in vivo, Male ICR mice
# run-conditions: male, ICR, mouse, plasma, ip, 10 mg/kg, read-out: BA (bioavailability)

molecule | bioavailability, %
COc1ccc2[nH]c([S+]([O-])Cc3ncc(C)c(OC)c3C)nc2c1 (stereo not shown) | 24.1

---

# assay: Pharmacokinetic study of omeprazole in mice after i.v., i.p. and p.o. administration (plasma and brain, LC-QTOF-MS)
# Type: in vivo, Male ICR mice
# run-conditions: male, ICR, mouse, brain/plasma, po, 10 mg/kg, p.o., AUClast, read-out: brain-to-plasma partition coefficient (Kp) = AUCbrain/AUCplasma
endpoint-name: Kp

molecule | experimental-value
COc1ccc2[nH]c([S+]([O-])Cc3ncc(C)c(OC)c3C)nc2c1 (stereo not shown) | 0.064
